# Tested on: Mammalian orthoreovirus 1
# TEST NAME: Concentration required to inhibit reovirus-1 induced cytopathicity in Vero cells by 50%
# Format: functional, organism-based
# COND: Mammalian orthoreovirus 1, Vero
Entries annotated with measured IC50

Task item: Please state recorded IC50 (tested on Mammalian orthoreovirus 1) of "CCCCCCCCCCCCSCCCCC(=O)NCCCCCCCCCCC(=O)NCCC(=O)[O-].[Na+]"
Reply: > 200 µg/mL

Task item: Repeat for the following molecule: "CCCCCCCCCCCCSCCCCCCCCCCCCCCCCCCCCCCCCCCCCCCCCCCCCCCCCC(=O)NCCCCCCCCCCC(=O)[O-].[Na+]"
Reply: > 200 µg/mL

Task item: For "CCCCCCCCCCCCSCCCCCCCCCCC(=O)N(C)CCCCCCCCCCC(=O)[O-].[Na+]" then?
Reply: > 200 µg/mL

Task item: Quick one: CCCCCCCCCCCCSCCCCCCCCCCCCCCCCCCCCCCCCCCCCCCCCCCCCCCCCCCCCCCCCCCC(=O)N(CC)CCCCCCCCCCC(=O)NC(CCC(=O)[O-])C(=O)O.[Na+] (centres undefined)
Reply: > 10 µg/mL
